Target: Focal adhesion kinase 1 (Homo sapiens)
Test: small-molecule microarray binders of FAK, primary screen, biochemical, 635/667 nm fluorescence, BSA, DTT (AID 1130);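 further: composite of spot emission at 667 nm and signal to noise over triplicate slides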
Settings: PTK2 binding, 635 nm fluorescence, higher = more signal
Use 0.06 as the dividing line for composite z-score, with the line itself on the y side and lower values as n.

- compound: "CCOC(=O)[C@H](Cc1ccccc1)NC(=O)CCC1CC(OC(=O)NCCc2ccc(F)cc2)CC2(CCCC(COC(=O)NCCc3ccccc3OC)O2)O1 (stereo not given in full)"
  class-assignment: "y"

In: Hello, I need to know if `COC(=O)[C@H]1O[C@@H](c2c(OC)c(OC)c(C)c(OC)c2OC)[C@H](C)[C@@H](O)[C@H]1C` has measured composite z-score not below 0.06. Thanks!
Out: y

In: Hello, I need to know if `CCOC(=O)NN=C1C[C@@H](O)[C@@H](O)[C@@H]2[C@@H]3C(=O)N(C(C)(C)C)C(=O)[C@@H]3CC[C@H]12` has measured composite z-score not below 0.06. Thanks!
Out: y

In: Hello, I need to know if `COc1ccc(O[C@@H]2[C@H](O)CO[C@@H]2C=Cc2ccccc2)cc1` has measured composite z-score not below 0.06. Thanks!
Out: y

* * *

Quick list: composite z-score per entry.
System: Inhibin beta A chain (activin A)
Test: INHBA (activin A) binders on microarrays, primary screen, biochemical, small-molecule microarray, 635 nm fluorescence scan (AID 1107);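 further: mouse activin A protein probed at 4.33 µg/mL on printed slides; score merges bound-protein fluorescence near 667 nm with spot signal-to-noise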
Details: small-molecule microarray binding, higher = more signal

- molecule: "COc1cccc([C@H]2Oc3ccc(OC)cc3C(=NO[C@@H]3O[C@H](COC(C)=O)[C@@H](OC(C)=O)[C@H](OC(C)=O)[C@H]3OC(C)=O)[C@@H]2O)c1"
  measured-value: -0.43

In: Give the reported value of composite z-score for this record: `C#CCCCON=C1[C@H]2CCn3c(=O)n(C)c(=O)n3[C@H]2[C@H](O)[C@@H]2O[C@H]12`
Out: 0.213

In: Give the reported value of composite z-score for this record: `O=C(NN=C1C[C@@H](O)[C@@H](O)[C@@H]2[C@@H]3C(=O)N(C4CCCCC4)C(=O)[C@@H]3CC[C@@H]12)OCc1ccccc1`
Out: -0.347

In: Give the reported value of composite z-score for this record: `CCOC(=O)NN=C1C[C@@H](O)[C@@H](O)[C@@H]2[C@@H]3C(=O)N(C(C)(C)C)C(=O)[C@@H]3CC[C@H]12`
Out: 0.103

In: Give the reported value of composite z-score for this record: `CO[C@H]1COC(=O)CC=C[C@@H](C)[C@H](NS(=O)(=O)c2ccc(C)cc2)COC(=O)CCC[C@@H]1C`
Out: 0.9

In: Give the reported value of composite z-score for this record: `C[C@@H]1CC[C@H]2C(=O)O[C@@H](Cc3ccccc3)CN2[C@H]1c1ccc(Br)cc1`
Out: 0.619

* * *

Target: Fibroblast growth factor 10 (Homo sapiens) (UniProt O15520)
Sequence (O15520 whole entry, looked up): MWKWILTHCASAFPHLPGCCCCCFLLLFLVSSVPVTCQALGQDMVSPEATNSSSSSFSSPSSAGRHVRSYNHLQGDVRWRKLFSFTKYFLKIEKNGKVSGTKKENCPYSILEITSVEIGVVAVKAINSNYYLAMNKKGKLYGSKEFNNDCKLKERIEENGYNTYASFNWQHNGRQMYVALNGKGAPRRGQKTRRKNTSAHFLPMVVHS
Test: FGF10 binders on small-molecule microarrays, primary screen, biochemical, small-molecule microarray, 635 nm fluorescence (AID 1102)
Conditions: FGF10 binding, fluorescence 635 nm, higher = more signal
Quick list: composite z-score per entry.

In: Find the measured composite z-score of `C[C@H]1Cc2c(COc3ccccc3)nc3c(c2CO1)CN(CCOc1ccccc1)CC3` with Fibroblast growth factor 10 (Homo sapiens) (UniProt O15520) as test system.
Out: 1.03

In: Find the measured composite z-score of `CO[C@H]1COC(=O)CCC[C@@H](C)[C@H](OC)COC(=O)[C@@H]2CCCN2C(=O)CC=C[C@@H]1C` with Fibroblast growth factor 10 (Homo sapiens) (UniProt O15520) as test system.
Out: 0.269

Measured values drawn from PubChem BioAssay for this set.
